Reference source for all entries: ChEMBL document CHEMBL3862012

Can you tell me GI50 for the items I'm about to list?
test: Cytotoxicity against human IGROV1 cells assessed as growth inhibition after 48 hrs by SRB assay; assay type: functional; details: IGROV-1, 48 h
Numbers only, in nM.

QUERY: Provide one value: measured GI50 of `COc1ccc(CN2c3ccccc3Sc3ccccc32)c(C(F)(F)F)c1`
RESULT: 3430

QUERY: Provide one value: measured GI50 of `COc1ccc(CN2c3ccccc3CCc3ccccc32)cc1F`
RESULT: 1570

QUERY: Provide one value: measured GI50 of `COc1ccc(CN2c3ccccc3Sc3ccccc32)cc1O`
RESULT: 1930

QUERY: Provide one value: measured GI50 of `COc1ccc(CN2c3ccccc3Sc3ccccc32)cc1F`
RESULT: 1070

# input for lookup
QUERY: Provide one value: measured GI50 of `COc1ccc(CN2c3ccccc3Sc3ccccc32)c(F)c1`
RESULT: 46

----------
test: Cytotoxicity against human A549 cells assessed as growth inhibition at 10 uM after 48 hrs by SRB assay relative to control; assay type: functional; settings: A549, 48 h, read-out: GI
Can you tell me inhibition of growth at 10 µM for the items I'm about to list?
Answers are plain numbers, in %.

Below are some compounds; for each one, tell me its inhibition of growth at 10 µM.
1. COc1ccc(CN2c3ccccc3Sc3ccccc32)c(F)c1
2. COc1ccc(CN2c3ccccc3Sc3ccccc32)c(C(F)(F)F)c1

RESULT:
1. 66
2. 67

Below are some compounds; for each one, tell me its inhibition of growth at 10 µM.
1. COc1ccc(CN2c3ccccc3CCc3ccccc32)cc1F
2. COc1ccc(CN2c3ccccc3Sc3ccccc32)cc1O
3. COc1ccc(CN2c3ccccc3Sc3ccccc32)cc1F
4. COc1ccc(CN2c3ccccc3Oc3ccccc32)cc1O
5. COc1ccc(CN2c3ccccc3Oc3ccccc32)cc1F

RESULT:
79
86
78
62
56

----------
experiment: Cytotoxicity against human BT549 cells assessed as growth inhibition at 10 uM after 48 hrs by SRB assay relative to control; format: functional; conditions: BT-549, 48 h, read-out: GI
Can you tell me inhibition of growth at 10 µM for the items I'm about to list?
Answers are plain numbers, in %.

Answered examples (5):
QUERY: Provide one value: measured inhibition of growth at 10 µM of `COc1ccc(CN2c3ccccc3Oc3ccccc32)cc1O`
RESULT: 60

QUERY: Provide one value: measured inhibition of growth at 10 µM of `COc1ccc(CN2c3ccccc3Sc3ccccc32)c(F)c1`
RESULT: 47

QUERY: Provide one value: measured inhibition of growth at 10 µM of `COc1ccc(CN2c3ccccc3Sc3ccccc32)cc1O`
RESULT: 45

QUERY: Provide one value: measured inhibition of growth at 10 µM of `COc1ccc(CN2c3ccccc3Oc3ccccc32)cc1F`
RESULT: 30

QUERY: Provide one value: measured inhibition of growth at 10 µM of `COc1ccc(CN2c3ccccc3CCc3ccccc32)cc1F`
RESULT: 46

Below are some compounds; for each one, tell me its inhibition of growth at 10 µM.
1. COc1ccc(CN2c3ccccc3Sc3ccccc32)cc1F
2. COc1ccc(CN2c3ccccc3Sc3ccccc32)c(C(F)(F)F)c1

RESULT:
1: 50; 2: 47

----------
assay: Cytotoxicity against human MDA-MB-435 cells assessed as growth inhibition at 10 uM after 48 hrs by SRB assay relative to control; assay type: functional; conditions: MDA-MB-435, 48 h, read-out: GI
quantityMeasured: inhibition of growth at 10 µM (%)
Numbers only, in %.

QUERY: Provide one value: measured inhibition of growth at 10 µM of `COc1ccc(CN2c3ccccc3Oc3ccccc32)cc1O`
RESULT: 91

QUERY: Provide one value: measured inhibition of growth at 10 µM of `COc1ccc(CN2c3ccccc3Oc3ccccc32)cc1F`
RESULT: 100

QUERY: Provide one value: measured inhibition of growth at 10 µM of `COc1ccc(CN2c3ccccc3Sc3ccccc32)c(F)c1`
RESULT: 100

Below are some molecules; for each one, tell me its inhibition of growth at 10 µM.
1. COc1ccc(CN2c3ccccc3Sc3ccccc32)cc1F
2. COc1ccc(CN2c3ccccc3CCc3ccccc32)cc1F
3. COc1ccc(CN2c3ccccc3Sc3ccccc32)cc1O
4. COc1ccc(CN2c3ccccc3Sc3ccccc32)c(C(F)(F)F)c1

RESULT:
[100, 100, 99, 100]
